Test Summary: protein stability index of a GFP-peptide fusion (yeast GPS) (PSI 1-4); higher = more stable; sorted into four equal gates, so the index is relative within each strain
Condition Set: pdr5∆
Experimental Endpoint: protein stability index

Recorded protein stability index, per entry:
{"Construct Sequence": "RGNTKIHSMNENPTPEK [SIR3]", "protein stability index": 3.15}
{"Construct Sequence": "GRHHQEEELFQEMIEIS [SRP54]", "protein stability index": 3.3}
{"Construct Sequence": "NIRGNTIRQIILPDSLN [SMD1]", "protein stability index": 2.94}

Recorded protein stability index (sequence YILSLVSIKDSTGCVVG [YMR129W/POM152] ): 1.47

====

Test Summary: protein stability index of a GFP-peptide fusion (yeast GPS) (PSI 1-4); higher = more stable; sorted into four equal gates, so the index is relative within each strain
Condition Set: san1∆
As shown below, each of these sequences has a reported protein stability index value.

Examples from the recorded data:
{"Construct Sequence": "GATYRGKLVESEDSMNV [SMD3]", "Meas Value": 3.01}
{"Construct Sequence": "KDLDGWQVIITDDQGRV [SIR3]", "Meas Value": 3.21}
{"Construct Sequence": "ILEESLNAIILKLEKLN [SMC3]", "Meas Value": 1.5}

Looking up PEIGNRKINLFYLYMLV [SWI1] , I found its protein stability index recorded as 1.1

Recorded result, FSNRFLPVASPFHSHLL [FAS1] , protein stability index: 3.19

Kindly note the recorded protein stability index for LSLHENYPQDEINAVFN [POP1] , which is 3.05

What the record says about NSPTSFFDGSASSTPIP [YOR098C/NUP1] : protein stability index is 2.94

Record TGETYQRFVGHKSDVMS [ASC1] , field protein stability index: 2.6

Entry under test: LLKDIFANNLKSAISNN [SIR4] . Its protein stability index was 2.44

Input ARKSAPSTGGVKKPHRY [HHT1] . Output protein stability index: 2.03

Recorded protein stability index (sequence KASVTIVFDNTDKSNSP [SMC2] ): 2.9

Value of measured protein stability index for the entry SPDGRNFQVEYAVKAVE [PRE10] : 2.65

// field: protein stability index; key: PINLPPQIAQLPLATQQ [SNF5] ; value = 2.46

Looking up ILRSIPDKLLGVILMFA [COB] , I see its protein stability index listed as 1.65

Just so you know, measured protein stability index for HIEGVVILKKNPDYREE [RPN1] came out at 3.05

====

The entries below come with measured protein stability index values attached.
Test Summary: protein stability index of a GFP-peptide fusion (yeast GPS) (PSI 1-4); higher = more stable; sorted into four equal gates, so the index is relative within each strain
Condition Set: doa10∆
Give the figure by itself; no unit, no explanation.

In the examples that follow, each entry is paired with its recorded protein stability index.
{"Construct Sequence": "LPRYQELTKEEAMYKLQ [SMC3]", "Meas Value": 3.02}
{"Construct Sequence": "GRILQNLLHSYMEKGTQ [YML103C/NUP188]", "Meas Value": 2.66}

Could you now look at the following sequence, please?
Memo: LFPEQQNKEIKAERVED [RPL6A] , reported protein stability index: 3.61

====

Test Summary: protein stability index of a GFP-peptide fusion (yeast GPS) (PSI 1-4); higher = more stable; sorted into four equal gates, so the index is relative within each strain
Condition Set: pdr5∆
Reported protein stability index values for a set of sequences
API doc: respond with a numeric literal and nothing else, no unit.

Take a look at these entries with their results.
{"Construct Sequence": "LFGENDTSTQAYEEEEE [NUT1]", "protein stability index": 3.41}
{"Construct Sequence": "EGQADIDMESDVEDDDK [POP7]", "protein stability index": 3.18}
{"Construct Sequence": "TKTILSGTDGSTIGILL [SRP72]", "protein stability index": 2.81}
{"Construct Sequence": "STLTTISGNPPLLYNSL [SRB5]", "protein stability index": 2.46}
{"Construct Sequence": "KNDNGGKMNNEVSTSTS [SWI3]", "protein stability index": 3.14}
{"Construct Sequence": "SPIKNGSCTRQLAGKSG [YOR098C/NUP1]", "protein stability index": 3.02}

protein stability index in this record for KNFSPTKRVEKPQLKFK [RRP6] : 2.17
